# maps each entry to its kon
ASSAY_TARGET: T1, Mouse Fc-human GDF15 (Mu IgG1Fc_Fxa_Hu GDF15) (human)
T1 construct: Whole entry is the fusion: mouse IgG1 Fc, FXa site and linker, mature human GDF15; described as dimeric; also called Murine dimeric IgG1 Fc-human GDF-15 with FXa cleavage site; control human GDF15
T1 chain: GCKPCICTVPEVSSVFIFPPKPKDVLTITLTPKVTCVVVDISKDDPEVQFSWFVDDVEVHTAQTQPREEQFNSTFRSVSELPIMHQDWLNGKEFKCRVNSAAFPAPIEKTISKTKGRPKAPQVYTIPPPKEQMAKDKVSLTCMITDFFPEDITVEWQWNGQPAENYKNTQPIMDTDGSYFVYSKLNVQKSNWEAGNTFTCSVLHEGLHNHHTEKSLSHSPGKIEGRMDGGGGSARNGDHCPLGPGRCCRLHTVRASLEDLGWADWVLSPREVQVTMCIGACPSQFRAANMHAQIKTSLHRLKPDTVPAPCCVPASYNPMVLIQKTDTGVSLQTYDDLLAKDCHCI
ASSAY_PROTOCOL: SPR BIAcore T200, 37C; Fc-GDF15 captured, IgG as analyte; average of runs
The reply should be a number in M⁻¹ s⁻¹, with the unit left off.

Consider the following illustrative entries.
BINDER	MEASUREMENT_UNITS	ASSAY_RESULT
GDF15_015 (antibody, human IgG1, kappa, V domains shown, Tested in bivalent format) VH: QVQLVQSGAEVKKPGSSVKVSCKASGYTFSDYNMDWVRQAPGQGLEWMGQINPNNGLAFYNQKFQGRVTITADESTSTAYMELSSLRSEDTAVYYCAREAITTVGATDYWGQGTLVTVSS VL: EIVLTQSPATLSLSPGERATLSCRTSQNVHSYLAWYQQKPGQAPRLLIYDASNLADGIPARFSGSGSGTDFTLTISSLEPEDFAVYYCQQFSNDPWTFGQGTKVEIKR	M⁻¹ s⁻¹	1.74e+06
GDF15_010 (antibody, human IgG1, kappa, V domains shown, Tested in bivalent format) VH: QVQLVQSGAEVKKPGSSVKVSCKASGYTFSDYNIDWVRQAPGQGLEWMGGINPNNGLAFFNQKFQGRVTITADESTSTAYMELSSLRSEDTAVYYCAREAITTVGAMDYWGQGTLVTVSS VL: EIVLTQSPATLSLSPGERATLSCRTSQSLHSYLAWYQQKPGQAPRLLIYDASNRATGIPARFSGSGSGTDFTLTISSLEPEDFAVYYCQQFWNDPWTFGQGTKVEIKR	M⁻¹ s⁻¹	1.1e+06

stdin: Returns the measured kon for the input binder. Input: GDF15_014 (antibody, human IgG1, kappa, V domains shown, Tested in bivalent format) VH: QVQLVQSGAEVKKPGSSVKVSCKASGYTFSSYNIDWVRQAPGQGLEWMGQINPINGLAFYNQKFQGRVTITADESTSTAYMELSSLRSEDTAVYYCAREAITTVGAMDYWGQGTLVTVSS VL: EIVLTQSPATLSLSPGERATLSCRTSQNVHNYLAWYQQKPGQAPRLLIYDASNRATGIPARFSGSGSGTDFTLTISSLEPEDFAVYYCQQFWSDPYTFGQGTKVEIKR
stdout: 1.89e+06
